Every entry's value here was drawn from patent US20160251332A1.

test system: Abutilon theophrasti; assay: Pre-emergence herbicidal activity, ABUTH; format: in vivo; conditions: Application pre-emergence, 1000 g/Ha, evaluated after 13 days, scale 0-5
ENDPOINT_LABEL: ABUTH damage score
Format: numeric value only, no unit, no commentary.

Some entries whose results are on file:
>  <MOLECULE>
CN1CC(O)N(c2cc(C(F)(F)F)c(-c3cncc(Cl)c3)cn2)C1=O (stereo not shown)

>  <ABUTH damage score>
5

$$$$
>  <MOLECULE>
CN1CC(O)N(c2cc(C(F)(F)F)c(-c3ccc(C#N)s3)cn2)C1=O (stereo not shown)

>  <ABUTH damage score>
3

$$$$
>  <MOLECULE>
CN(C)C(=O)c1cccc(-c2cnc(N3C(=O)N(C)CC3O)cc2C(F)(F)F)c1 (stereo not shown)

>  <ABUTH damage score>
3

$$$$
>  <MOLECULE>
CN1CC(O)N(c2cc(C(F)(F)F)c(-c3ccncc3C#N)cn2)C1=O (stereo not shown)

>  <ABUTH damage score>
5

$$$$
>  <MOLECULE>
CN1CC(O)N(c2cc(C(F)(F)F)c(C(=O)NC(C)(C)C)cn2)C1=O (stereo not shown)

>  <ABUTH damage score>
5

$$$$
>  <MOLECULE>
CN1CC(O)N(c2cc(C(F)(F)F)c(-c3ccsc3)cn2)C1=O (stereo not shown)

>  <ABUTH damage score>
2

$$$$

Q: May I ask what ABUTH damage score has been recorded for CN1CC(O)N(c2cc(C(F)F)c(Cl)cn2)C1=O (stereo not shown) ?
A: 4

Q: Returns the measured ABUTH damage score for the input molecule. Input: C=Cc1cnc(N2C(=O)N(C)CC2O)cc1C(F)(F)F (stereo not shown)
A: 4

###

system: Zea mays; test: Pre-emergence herbicidal activity, ZEAMX; format: in vivo; settings: Application pre-emergence, 1000 g/Ha, evaluated after 13 days, scale 0-5
ENDPOINT_LABEL: ZEAMX damage score
Give the figure only, with no unit attached.

Examples with answers:
>  <COMPOUND>
CN1CC(O)N(c2cc(C(F)(F)F)c(-c3cnc(C#N)nc3)cn2)C1=O (stereo not drawn) [Compound A27]

>  <ZEAMX damage score>
1

$$$$
>  <COMPOUND>
COc1cnc(N2C(=O)N(C)CC2O)cc1C(F)(F)F (stereo not drawn) [Compound A39]

>  <ZEAMX damage score>
2

$$$$

Q: Given the entry CN1CC(O)N(c2cc(C(F)(F)F)c(I)cn2)C1=O (stereo not drawn) [Compound A5] , report its measured ZEAMX damage score.
A: 4

Q: Returns the measured ZEAMX damage score for the input compound. Input: CN1CC(O)N(c2cc(C(C)(F)F)ccn2)C1=O (stereo not drawn) [Compound A37]
A: 2

Q: Can you look up the measured ZEAMX damage score of COc1ccccc1-c1cnc(N2C(=O)N(C)CC2O)cc1C(F)(F)F (stereo not drawn) [Compound A18] for me?
A: 1

Q: Can you look up the measured ZEAMX damage score of CCOC(=O)c1cncc(-c2cnc(N3C(=O)N(C)CC3O)cc2C(F)(F)F)c1 (stereo not drawn) [Compound A34] for me?
A: 1

Q: Fill in the blank: the reported ZEAMX damage score of CN1CC(O)N(c2cc(C(F)(F)F)c(-c3ccc(N4CCOCC4)nc3)cn2)C1=O (stereo not drawn) [Compound A31] is ____.
A: 0

###

Each item that follows carries a reported AMARE damage score.
test system: Amaranthus retroflexus; experiment: Post-emergence herbicidal activity, AMARE; assay type: in vivo; details: Application post-emergence, 1000 g/Ha, evaluated after 13 days, scale 0-5
Note: the reply should be a number with no unit written.

>  <COMPOUND>
CN1CC(O)N(c2cc(C(F)(F)F)c(-c3ccc(C#N)s3)cn2)C1=O (stereo not drawn)

>  <AMARE damage score>
5

$$$$
>  <COMPOUND>
CN1CC(O)N(c2cc(C(F)(F)F)c(-c3ccc(C#N)cc3)cn2)C1=O (stereo not drawn)

>  <AMARE damage score>
5

$$$$
>  <COMPOUND>
CN1CC(O)N(c2cc(C(C)(F)F)ccn2)C1=O (stereo not drawn)

>  <AMARE damage score>
5

$$$$
>  <COMPOUND>
CN1CC(O)N(c2cc(C(F)(F)C(F)(F)F)ccn2)C1=O (stereo not drawn)

>  <AMARE damage score>
5

$$$$
>  <COMPOUND>
COc1cnc(N2C(=O)N(C)CC2O)cc1C(F)(F)F (stereo not drawn)

>  <AMARE damage score>
5

$$$$
>  <COMPOUND>
COc1ccc(-c2cnc(N3C(=O)N(C)CC3O)cc2C(F)(F)F)c(OC)n1 (stereo not drawn)

>  <AMARE damage score>
5

$$$$
>  <COMPOUND>
C=Cc1cnc(N2C(=O)N(C)CC2O)cc1C(F)(F)F (stereo not drawn)

>  <AMARE damage score>
5

$$$$
>  <COMPOUND>
CN1CC(O)N(c2cc(C(F)(F)F)c(-c3cncc(Cl)c3)cn2)C1=O (stereo not drawn)

>  <AMARE damage score>
5

$$$$

Q: Quick check: AMARE damage score of COc1ccccc1-c1cnc(N2C(=O)N(C)CC2O)cc1C(F)(F)F (stereo not drawn) ?
A: 5

Q: What value of measured AMARE damage score is listed for CN1CC(O)N(c2cc(C(F)(F)F)c(-c3cccc([S+](C)[O-])c3)cn2)C1=O (stereo not drawn) ?
A: 5

Q: Consider the compound shown here: COc1cncc(-c2cnc(N3C(=O)N(C)CC3O)cc2C(F)(F)F)c1 (stereo not drawn) What is its recorded AMARE damage score?
A: 5

Q: // AMARE damage score lookup, key: CN1CC(O)N(c2cc(C(F)(F)F)c(-c3cnn(C)c3)cn2)C1=O (stereo not drawn)
A: 5

Q: AMARE damage score for CN1CC(O)N(c2cc(C(F)(F)F)c(-c3ccc(Cl)nc3)cn2)C1=O (stereo not drawn) ?
A: 5

Q: Value lookup for AMARE damage score; key = CN1CC(O)N(c2cc(C(F)(F)F)c(-c3cccc(S(=O)(=O)N(C)C)c3)cn2)C1=O (stereo not drawn)
A: 5

Q: Quick one: AMARE damage score for CN1CC(O)N(c2cc(C(F)(F)F)c(Br)cn2)C1=O (stereo not drawn) ?
A: 5

Q: Recorded AMARE damage score for CN1CC(O)N(c2cc(C(F)(F)F)c(-c3ccc(N4CCOCC4)nc3)cn2)C1=O (stereo not drawn) , please?
A: 5

Q: Return reported AMARE damage score; argument: CN1CC(O)N(c2cc(C(F)(F)F)c(-c3ccc(F)nc3)cn2)C1=O (stereo not drawn)
A: 5

Q: Reported AMARE damage score for CN1CC(O)N(c2cc(C(C)(C)F)ccn2)C1=O (stereo not drawn) : what is it?
A: 5

Q: // AMARE damage score lookup, key: CN(C)C(=O)c1cccc(-c2cnc(N3C(=O)N(C)CC3O)cc2C(F)(F)F)c1 (stereo not drawn)
A: 5

Q: Requested field: AMARE damage score. Item: COCc1cccc(-c2cnc(N3C(=O)N(C)CC3O)cc2C(F)(F)F)c1 (stereo not drawn)
A: 5

Q: # lookup: AMARE damage score of COCc1cnc(N2C(=O)N(C)CC2O)cc1C(F)(F)F (stereo not drawn)
A: 5

###

test system: Abutilon theophrasti; test: Pre-emergence herbicidal activity, ABUTH; format: in vivo; conditions: Application pre-emergence, 1000 g/Ha, evaluated after 13 days, scale 0-5
ENDPOINT_LABEL: ABUTH damage score
Please give the numeric answer without any surrounding text.

>  <COMPOUND>
CN1CC(O)N(c2cc(C(F)(F)C(F)(F)F)ccn2)C1=O (centres unmarked)

>  <MEASUREMENT_TARGET>
Abutilon theophrasti

>  <ABUTH damage score>
5

$$$$
>  <COMPOUND>
CN1CC(O)N(c2cc(C(F)(F)F)c(-c3cccc(S(=O)(=O)N(C)C)c3)cn2)C1=O (centres unmarked)

>  <MEASUREMENT_TARGET>
Abutilon theophrasti

>  <ABUTH damage score>
5

$$$$
>  <COMPOUND>
CN1CC(O)N(c2cc(C(F)(F)F)c(I)cn2)C1=O (centres unmarked)

>  <MEASUREMENT_TARGET>
Abutilon theophrasti

>  <ABUTH damage score>
5

$$$$
>  <COMPOUND>
CN1CC(O)N(c2cc(C(F)(F)F)c(-c3cccc(C#N)c3)cn2)C1=O (centres unmarked)

>  <MEASUREMENT_TARGET>
Abutilon theophrasti

>  <ABUTH damage score>
5

$$$$

Q: For the compound CN1CC(O)N(c2cc(C(C)(F)F)ccn2)C1=O (centres unmarked) , what ABUTH damage score is on record?
A: 5

###

test system: Abutilon theophrasti; test: Pre-emergence herbicidal activity, ABUTH; assay type: in vivo; conditions: Application pre-emergence, 1000 g/Ha, evaluated after 13 days, scale 0-5
Listed here are molecules together with their documented ABUTH damage score.
Lab note: record the figure alone, no unit after it.

Example molecules with recorded ABUTH damage score:
>  <MOLECULE>
CN1CC(O)N(c2cc(C(F)(F)F)c(NC(=O)C(C)(C)C)cn2)C1=O (centres unmarked)

>  <MEASUREMENT_TARGET>
Abutilon theophrasti

>  <ASSAY_VALUE>
5

$$$$
>  <MOLECULE>
CN1CC(O)N(c2cc(Cl)c(C(=O)NC(C)(C)C)cn2)C1=O (centres unmarked)

>  <MEASUREMENT_TARGET>
Abutilon theophrasti

>  <ASSAY_VALUE>
5

$$$$
>  <MOLECULE>
CN1CC(O)N(c2cc(C(F)(F)F)c(-c3ccc(N4CCOCC4)nc3)cn2)C1=O (centres unmarked)

>  <MEASUREMENT_TARGET>
Abutilon theophrasti

>  <ASSAY_VALUE>
2

$$$$

Q: Consider the molecule COc1cncc(-c2cnc(N3C(=O)N(C)CC3O)cc2C(F)(F)F)c1 (centres unmarked) and give its measured ABUTH damage score.
A: 5

Q: Quick one: ABUTH damage score for CN1CC(O)N(c2cc(C(F)(F)F)c(-c3cnc(C#N)nc3)cn2)C1=O (centres unmarked) ?
A: 5
